Each item that follows carries a reported apparent KD of K4 kissing-loop reporter.
System: K4 kissing-loop RNA reporter;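 further: bound reporter read as fluorescence of individual clusters on recovered sequencing chips by microscopy, with normalized cluster intensities fitted with a binding model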
Test: apparent KD of K4 kissing-loop reporter; higher = weaker reporter binding
Conditions: Eterna round: R107; input ligand: theophylline 20 uM
OBSERVATION TYPE: apparent KD of K4 kissing-loop reporter

>  <POLYMER SEQUENCE>
AGAGUUAUGCGAGGAUAUGCGGUUAGUACUCAAAGAGUACUAACGCAGAGUGAUGUUCUGUGAAACACAGAAGGUGCAUAACUCA [Omei KL FMN B SS B v2]

>  <RESULT>
205 nM

$$$$
>  <POLYMER SEQUENCE>
AUUUAAUGUAUAGAUUAUAUACAUUAUUCAGAGGAUAUGCAUUGAAGCAGAAGGCUGGGUGUAGUGAUGUUGCAAUUUUAAUUUA [whbob_SS_FMNA__2th172]

>  <RESULT>
299 nM

$$$$
>  <POLYMER SEQUENCE>
AAAAUAACCCAGUGAUGUUGGUCUCCAGAUACCAGCGACGAAAGUCGCCCUUGGCAGCUGUGGACGUACAAAAUAAGUACGUCCU

>  <RESULT>
485 nM

$$$$
